Consider the following compounds; for each one, report its Frequency.
# System: rat sciatic nerve
# Assay type: in vivo, Female Charles River rats
# Test Conditions: compound alone 1.0%, no vasoconstrictor

Q. Kindly indicate its recorded Frequency. Item: CCC(C)(C)NCC(=O)Nc1c(C)cccc1C [L, 2-tert. Amylamino-2',6'-acetoxylidide]
A. 6/6

Q. Kindly indicate its recorded Frequency. Item: CCCCN(C)CC(=O)Nc1c(C)cccc1C
A. 5/6

Q. Kindly indicate its recorded Frequency. Item: Cc1cccc(C)c1NC(=O)CN(C)C [H, 2-Dimethylamino-2'-6'-acetoxylidide]
A. 6/6

Q. Kindly indicate its recorded Frequency. Item: CCNCC(=O)Nc1c(C)cccc1C [J, 2-Ethylamino-2',6'-acetoxylidide]
A. 6/6

Q. Kindly indicate its recorded Frequency. Item: Cc1cccc(C)c1NC(=O)CNC1CCC1 [Compound K, 2-Cyclobutylamino-2',6'-acetoxylidide]
A. 6/6

Q. Kindly indicate its recorded Frequency. Item: Cc1cccc(C)c1NC(=O)C(C)N (stereo not drawn) [Q, 2-Amino-2',6'-propionoxylidide]
A. 5/6
